Kindly supply the reported EC50 values for the records listed here.
- measured.on: T1, human CLDN18.2 (human)
- T1 construct: also called hCLDN18.2; Claudin-18 splice variant 2
- run.description: FACS, HEK293-CLDN18.2 cells
Return type: number; implicit unit µg/mL.

// lookup EC50 for 59A9-C (antibody, human IgG1, V domains shown, also called chimeric 59A9) VH: QITQKESGPGILQPSQTLSLTCSLSGFSLSTYFIGVGWIRQPSGKGLEWLAHIWWNDNKYYNTALKSRLTISKDTSNNQVFLKIASVDTADTATYYCARMGSGAWFTYWGQGTLVTVSA VL: DIVMTQSPSSLTVTAGEKVTMSCKSSQSLLNSGNQKNYLTWYQQKPGQPPKLLIYWASTRESGVPDRFTGSGSGTDFTLTISSVQAEDLAVYYCQNDYYYPLTFGSGTKLEIK
1.35

// lookup EC50 for 26G6-C (antibody, human IgG1, V domains shown, also called chimeric 26G6) VH: EFQLQQSGPELEKPGASVKISCKTSGYSFTGYNMNWVKQSNGQSLEWIGHIDPYYVTTTYNQKFRGKATLTVDKSSSTAYMQLKSLTSEDSAVYYCARSFYGNAFDYWGQGTTLTVSS VL: DIVMTQSPSSLTVTAGEKVTMSCKSSQSLFNSGNQKNYLTWYQQKPGQPPKLLIYWASTRESGVPDRFTGSGSGTDFTLTISSVQAEDLAVYYCQNDYSFPFTFGSGTKLEIK
1.1

// lookup EC50 for 18B10-C (antibody, human IgG1, V domains shown, also called chimeric 18B10) VH: EFQLQQSGPELEKPGASVRISCKTSGYSFTGYNMNWVKQSNGESLEWIGNIDPYYGGTSYNQKFKGKATLTVDKSSSTAYMQLKSLTSEDSAVYYCARMYHGNAFDYWGQGTTLTVSS VL: DIVMTQSPSSLTVTAGEKVTMSCKSSQSLLNSGNLKNYLTWYQQKPGQPPKLLIYWASTRKSGVPDRFTGSGSGTDFTLTLSSVQAEDLAVYYCQNDYSYPLTFGAGTKLELK
0.96
